# Assay Target: soluble epoxide hydrolase (sEH) (Homo sapiens)
# Construct: His-tagged sEH protein (used in the selection)
# Sequence (P34913 whole entry): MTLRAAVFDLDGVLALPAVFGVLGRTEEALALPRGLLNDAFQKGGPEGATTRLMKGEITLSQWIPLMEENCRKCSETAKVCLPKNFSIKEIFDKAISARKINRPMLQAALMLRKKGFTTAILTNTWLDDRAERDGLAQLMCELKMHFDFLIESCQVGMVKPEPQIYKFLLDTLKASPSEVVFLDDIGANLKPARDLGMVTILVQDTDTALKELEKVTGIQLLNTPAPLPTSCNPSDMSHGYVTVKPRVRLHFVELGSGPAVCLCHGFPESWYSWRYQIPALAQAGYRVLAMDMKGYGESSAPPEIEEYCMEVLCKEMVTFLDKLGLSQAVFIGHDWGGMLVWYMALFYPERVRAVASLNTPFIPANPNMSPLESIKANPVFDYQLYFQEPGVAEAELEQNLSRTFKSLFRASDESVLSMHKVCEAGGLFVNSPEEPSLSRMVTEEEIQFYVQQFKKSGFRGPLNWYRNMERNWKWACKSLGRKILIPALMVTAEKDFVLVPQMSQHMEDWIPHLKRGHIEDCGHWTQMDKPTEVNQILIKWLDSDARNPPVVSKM
# Method Summary: biochemical sEH inhibition assay of off-DNA compound (methyl in place of DNA linker); building-block combination enriched in affinity selection
Value Kind: IC50 (nM)
Note: unit nM is implicit; provide only the numeric part.

Fetch value of IC50 on soluble epoxide hydrolase (sEH) (Homo sapiens) for CN(CCn1cccn1)C(=O)c1ccc(-c2cccc(C(=O)NC3CCCCC3)c2)nc1 .
2
